Study Target: Tubulin (Bos taurus, UniProt Q6B856+Q862L2+Q862F3)
Assay: Evaluated for the inhibition of tubulin polymerization without pre-incubation
Type: functional
Measured Attribute: IC50 (µM)
Numeric only. Scale: µM

Problem: Which measured IC50 belongs to C=C1Cc2cc(OC)c(OC)c(OC)c2-c2ccc(SC)c(=O)cc21 , tested on Tubulin (Bos taurus, UniProt Q6B856+Q862L2+Q862F3)?
Result: 2.8

Problem: Okay, and CCOC(=O)OC[C@H]1Cc2cc(OC)c(OC)c(OC)c2-c2ccc(SC)c(=O)cc21 ?
Result: 4.3

Problem: Okay, and COc1cc2c(c(OC)c1OC)-c1ccc(SC)c(=O)cc1[C@@H](COC(=O)c1ccccc1F)C2 ?
Result: 3.8

Problem: Okay, and CC(C)n1cnc2c(Nc3ccc(Br)cc3)nc(N3CCC[C@@H]3CO)nc21 ?
Result: 3.7
